protocol notes: In vitro metabolic stability, plasma
Format: in vitro ADME
Parameters: unit not given here
run parameters: 37° C.
endpoint: In vitro Stability (mouse) - Plasma

Query (substance): C319 (CAXEKIAALSEIIWLPCLTYAQIXAFIAXLNXDPCQSSEILSEAXELCS; DOTA-PEG4 N-term, methyllysines, citrulline, C-amide; SITE 3 trimethyllysine; SITE 24 dimethyllysine; SITE 29 monomethyllysine; SITE 32 citrulline; SITE 45 monomethyllysine) [Compound C319] ; field requested: In vitro Stability (mouse) - Plasma >12

Can you check C354 (CAREKIAALSEIIWLPCLTYAQIXAFIAALNDDPCQSSEILSEAXELCS; not fully specified; DOTA-PEG4, methyl-Lys, C-terminal amide; SITE 24 monomethyllysine; SITE 45 monomethyllysine) [Compound C354] next? >12

Can you check C311 (CAXEKIAALSEIIWLPCLNYAQIXAFIAALNDDPCQSSEILSEAXELCS; DOTA-PEG4 N-term, methylated lysines, C-amide; SITE 3 trimethyllysine; SITE 24 monomethyllysine; SITE 45 monomethyllysine) [Compound C311] next? >12
